- System: BV-2
- protocol_notes: Anti-neuroinflammatory activity against LPS-stimulated mouse BV-2 cells assessed as inhibition of NO production at 1 uM
- Type: functional
- Parameters: scale not given: the % may be the effect or the level left
Please mark 1 if the recorded Activity is equal to or greater than 40%, and 0 if it falls below.

# compound, cat
measured = [
    ("CN(C)c1ccc(/C(Cn2ccnc2)=N/OC(=O)/C=C/c2ccc(Cl)cc2)cc1", 1),
    ("C#CCO/N=C(\\Cn1ccnc1)c1ccc(C(=O)OCC)cc1", 0),
    ("CN(C)c1ccc(/C(Cn2ccnc2)=N/OC(=O)/C=C/c2ccc3c(c2)OCO3)cc1", 0),
    ("O=C(Cn1ccnc1)c1ccc2c(c1)OCO2", 0),
    ("CN(C)c1ccc(/C(Cn2ccnc2)=N/OCc2ccccc2)cc1", 0),
    ("CN(C)c1ccc(/C(Cn2ccnc2)=N/OC(=O)CCc2ccccc2)cc1", 0),
    ("COc1ccc(/C=C/C(=O)O/N=C(\\Cn2ccnc2)c2ccc3c(c2)OCO3)cc1", 1),
    ("FCCCO/N=C(\\Cn1ccnc1)c1ccc2c(c1)OCO2", 0),
    ("O=C(O/N=C(\\Cn1ccnc1)c1ccc2c(c1)OCO2)C12CC3CC(CC(C3)C1)C2", 1),
    ("COC(Cn1ccnc1)c1ccc2c(c1)OCO2 (racemic)", 0),
    ("C#CCO/N=C(\\Cn1ccnc1)c1ccc2c(c1)OCO2", 1),
    ("CN(C)c1ccc(/C(Cn2ccnc2)=N/OC/C=C/c2ccccc2)cc1", 0),
    ("FCCO/N=C(\\Cn1ccnc1)c1ccc2c(c1)OCO2", 1),
    ("C#CCO/N=C(/Cn1ccnc1)c1ccc2c(c1)OCO2", 0),
    ("CN(C)c1ccc(/C(Cn2ccnc2)=N/OC(=O)/C=C/c2ccccc2Cl)cc1", 0),
    ("O=C(CCCC[C@@H]1CCSS1)O/N=C(\\Cn1ccnc1)c1ccc2c(c1)OCO2", 1),
    ("COC(=O)CCCCCO/N=C(\\Cn1ccnc1)c1ccc2c(c1)OCO2", 0),
    ("OC(Cn1ccnc1)c1ccc2c(c1)OCO2 (racemic)", 0),
    ("C#CCO/N=C(\\Cn1ccnc1)c1ccc(C(=O)OC)cc1", 0),
    ("c1cn(CCc2ccc3c(c2)OCO3)cn1", 0),
    ("C=C(C)CO/N=C(\\Cn1ccnc1)c1ccc(N(C)C)cc1", 0),
]

###

- protocol_notes: Cytotoxicity against LPS stimulated mouse BV-2 cells assessed as cell survival at 10 uM by MTT assay
- Format: toxicity, cell-based
- condition_description: LPS-stimulated BV-2 cells, read-out: Activity
parameter: viability at 10 µM (%)

# compound, parameter, readout_units, reported_measurement
rows = [
    ("C#CCO/N=C(\\Cn1ccnc1)c1ccc(C(=O)OCC)cc1", "viability at 10 µM", "%", 115),
    ("FCCCO/N=C(\\Cn1ccnc1)c1ccc2c(c1)OCO2", "viability at 10 µM", "%", 87.7),
    ("C#CCO/N=C(\\Cn1ccnc1)c1ccc(C(=O)NO)cc1", "viability at 10 µM", "%", 109),
    ("CN(C)c1ccc(/C(Cn2ccnc2)=N/OC(=O)/C=C/c2ccc(Cl)cc2)cc1", "viability at 10 µM", "%", 85.6),
    ("OC(Cn1ccnc1)c1ccc2c(c1)OCO2 (racemic)", "viability at 10 µM", "%", 97.1),
    ("C#CCO/N=C(/Cn1ccnc1)c1ccc2c(c1)OCO2", "viability at 10 µM", "%", 98.4),
    ("CN(C)c1ccc(/C(Cn2ccnc2)=N/OCc2ccccc2)cc1", "viability at 10 µM", "%", 97.3),
]
